# protocol-details: Pharmacokinetic evaluation in Macaca fascicularis monkeys, oral administration
# Type: in vivo
# assay-conditions: male, cynomolgus monkey, p.o. 5 mg/kg, plasma
endpoint: Tmax (h)
Write down the numeric answer in h and omit the unit.

// lookup Tmax for "C#C[C@H]1C[C@]1(c1noc(=O)[nH]1)n1c(C(=O)N2CCc3nn(-c4cc(C)c(F)c(C)c4)c(-n4ccn(-c5ccc6c(cnn6C6CC6)c5F)c4=O)c3[C@@H]2C)cc2cc([C@H]3CCOC(C)(C)C3)ccc21"
2.7

---

Below: a set of entries, each annotated with reported Cmax.
# protocol-details: Pharmacokinetic evaluation in rats, oral administration
# Parameters: species or system SD rats
# assay-conditions: rat, in vivo, p.o. 5 mg/kg, plasma
Enter your answer as a number in ng/mL; do not include the unit.

* Cc1cc(-n2nc3c(c2-n2ccn(-c4ccc5c6c(nn5C)CCCOc46)c2=O)[C@H](C)N(C(=O)c2cc4cc([C@H]5CCOC(C)(C)C5)ccc4n2[C@@]2(c4noc(=O)[nH]4)C[C@@H]2C)CC3)cc(C)c1F | 1110

Given the entry "[2H]C([2H])([2H])n1nc2c3c(c(-n4ccn(-c5c6c(nn5-c5cc(C)c(F)c(C)c5)CCN(C(=O)c5cc7cc([C@H]8CCOC(C)(C)C8)ccc7n5[C@@]5(c7noc(=O)[nH]7)C[C@@H]5C)[C@H]6C)c4=O)ccc31)OCCC2" , report its measured Cmax.
971

Record request: Cmax value, item "Cc1cc(-n2nc3c(c2-n2ccn(-c4ccc5c(cnn5C5CC5)c4F)c2=O)[C@H](C)N(C(=O)c2cc4cc([C@H]5CCOC(C)(C)C5)ccc4n2[C@@]2(c4noc(=O)[nH]4)C[C@@H]2C)CC3)cc(C)c1F"
1960
